Sourced from patent US12479831B2

Test system: IFNα-Induced STAT Phosphorylation in Human Whole Blood
assayName: IFNα-Induced STAT Phosphorylation in Human Whole Blood
Assay type: cell-based
measurementContext: 1 h incubation with compound, 1000 U/mL recombinant human IFNα A/D for 15 min, pSTAT5 (pY694) median fluorescence intensity in CD3 positive population, read-out: hWB IC50
measure: IC50 (nM)
Report only the number, with the unit nM understood.

Below: 6 compounds and their reported IC50.
compound	measure	quantitativeReadout
[2H]C([2H])([2H])NC(=O)c1cnc(Nc2cc(C#N)n(C)n2)cc1Nc1cccc(-c2ncc(F)cn2)c1OC [Example 62]	IC50	109
[2H]C([2H])([2H])NC(=O)c1nnc(NC(=O)C2CC2)cc1Nc1cccc(-c2cn(C)c(=O)cn2)c1OC [Example 10]	IC50	194
[2H]C([2H])([2H])NC(=O)c1nnc(NC(=O)C2CC2)cc1Nc1cc(F)cc(-c2ncc(C3(O)CCC3)cn2)c1OC [Example 28]	IC50	170
[2H]C([2H])([2H])NC(=O)c1cnc(Nc2ccn(CC)n2)cc1Nc1cccc(-c2ncc(F)cn2)c1OC [Example 67]	IC50	87
[2H]C([2H])([2H])NC(=O)c1nnc(NC(=O)C2CC2)cc1Nc1cccc(-c2cnc(C(C)(O)CF)cn2)c1OC (stereo not shown) [Example 35]	IC50	107
[2H]C([2H])([2H])NC(=O)c1cnc(Nc2cc(=O)n(C)cn2)cc1Nc1cccc(-c2ncc(F)cn2)c1OC [Example 77]	IC50	228

Then this compound:
Exam item: Report IC50 for [2H]C([2H])([2H])NC(=O)c1cnc(Nc2ccn(C3CC3)n2)cc1Nc1cccc(-c2ncccn2)c1OC [Example 69] tested on IFNα-Induced STAT Phosphorylation in Human Whole Blood.
Marked response: 56

---

Tested on: IFNα-Induced STAT Phosphorylation in Human Whole Blood
assayName: IFNα-Induced STAT Phosphorylation in Human Whole Blood
Type: cell-based
measurementContext: 1 h incubation with compound, 1000 U/mL recombinant human IFNα A/D for 15 min, pSTAT5 (pY694) median fluorescence intensity in CD3 positive population, read-out: hWB IC50
Entries and their measured IC50 follow.
Returns: string containing the numeric result and its unit.

Below: 5 compounds and their reported IC50.
compound	measure	result
[2H]C([2H])([2H])NC(=O)c1nnc(NC(=O)C2CC2)cc1Nc1cccc(-c2ncc(F)cc2C#N)c1OC	IC50	242 nM
[2H]C([2H])([2H])NC(=O)c1nnc(NC(=O)C2CC2)cc1Nc1cccc(-c2cnc(N3CCN(C)CC3)cn2)c1OC	IC50	267 nM
[2H]C([2H])([2H])NC(=O)c1nnc(NC(=O)C2CC2)cc1Nc1cccc(-c2ncc(N3CCN(C)C3=O)cn2)c1OC	IC50	73 nM
[2H]C([2H])([2H])NC(=O)c1nnc(Nc2cc(C(C)(C)O)n(C)n2)cc1Nc1cc(F)cc(-c2ncc(F)cn2)c1OC	IC50	77 nM
[2H]C([2H])([2H])NC(=O)c1nnc(Nc2cc(C(=O)N(C)C)n(C)n2)cc1Nc1cccc(-c2ncc(F)cn2)c1OC	IC50	43 nM

Exam item: Report IC50 for [2H]C([2H])([2H])NC(=O)c1nnc(NC(=O)C2CC2)cc1Nc1cccc(-c2cnc(C3(O)COC3)cn2)c1OC tested on IFNα-Induced STAT Phosphorylation in Human Whole Blood.
Marked response: 43 nM

Exam item: Report IC50 for [2H]C([2H])([2H])NC(=O)c1nnc(NC(=O)C2CC2)cc1Nc1cccc(-c2ccc(C(=O)N3CCCC3)cn2)c1OC tested on IFNα-Induced STAT Phosphorylation in Human Whole Blood.
Marked response: 218 nM

Exam item: Report IC50 for [2H]C([2H])([2H])NC(=O)c1nnc(NC(=O)C2CC2)cc1Nc1cccc(-c2cnc(N3CCN(C(C)=O)CC3)cn2)c1OC tested on IFNα-Induced STAT Phosphorylation in Human Whole Blood.
Marked response: 121 nM

Exam item: Report IC50 for [2H]C([2H])([2H])NC(=O)c1cnc(NC(=O)C2CC2)cc1Nc1cccc(-c2cnc(-n3cncn3)cn2)c1OC tested on IFNα-Induced STAT Phosphorylation in Human Whole Blood.
Marked response: 1040 nM

---

System: IFNα-Induced STAT Phosphorylation in Human Whole Blood
assayName: IFNα-Induced STAT Phosphorylation in Human Whole Blood
Assay type: cell-based
measurementContext: 1 h incubation with compound, 1000 U/mL recombinant human IFNα A/D for 15 min, pSTAT5 (pY694) median fluorescence intensity in CD3 positive population, read-out: hWB IC50
Entries and their measured pIC50 follow.
// field semantics: pIC50 = negative decimal log of concentration (mol/L)

Below: 5 molecules and their reported pIC50.
molecule	quantitativeReadout
[2H]C([2H])([2H])NC(=O)c1nnc(Nc2cc(C(C)(C)O)n(C)n2)cc1Nc1cccc(-c2ncc(F)cn2)c1OC	7.31
[2H]C([2H])([2H])NC(=O)c1nnc(Nc2cc3n(n2)CCN(C2CC2)C3=O)cc1Nc1cccc(-c2ncc(F)cn2)c1OC	6.58
[2H]C([2H])([2H])NC(=O)c1nnc(NC(=O)C2CC2)cc1Nc1cccc(-c2cnc(C(=O)N3CCOCC3)cn2)c1OC	7.36
[2H]C([2H])([2H])NC(=O)c1nnc(Nc2cn(CC)nn2)cc1Nc1cccc(-c2ncccn2)c1OC	6.84
[2H]C([2H])([2H])NC(=O)c1nnc(NC(=O)C2CC2)cc1Nc1cccc(-c2ncc(N3CCOCC3)cn2)c1OC	7.02

Exam item: Report pIC50 for [2H]C([2H])([2H])NC(=O)c1nnc(NC(=O)C2CC2)cc1Nc1cccc(-c2ncc3ncn(C)c3n2)c1OC tested on IFNα-Induced STAT Phosphorylation in Human Whole Blood.
Marked response: 6.60

Exam item: Report pIC50 for [2H]C([2H])([2H])NC(=O)c1nnc(Nc2ccc(C(F)(F)F)nn2)cc1Nc1cccc(-c2ncccn2)c1OC tested on IFNα-Induced STAT Phosphorylation in Human Whole Blood.
Marked response: 6.95

Exam item: Report pIC50 for [2H]C([2H])([2H])NC(=O)c1nnc(NC(=O)C2CC2)cc1Nc1cc(F)cc(-c2ccc(C(C)(C)O)nn2)c1OC tested on IFNα-Induced STAT Phosphorylation in Human Whole Blood.
Marked response: 6.92

Exam item: Report pIC50 for [2H]C([2H])([2H])NC(=O)c1nnc(NC(=O)C2CC2)cc1Nc1cc(F)cc(-c2ncc(C(=O)N(C)CC)cn2)c1OC tested on IFNα-Induced STAT Phosphorylation in Human Whole Blood.
Marked response: 7.10

---

Tested on: IFNα-Induced STAT Phosphorylation in Human Whole Blood
assayName: IFNα-Induced STAT Phosphorylation in Human Whole Blood
Format: cell-based
measurementContext: 1 h incubation with compound, 1000 U/mL recombinant human IFNα A/D for 15 min, pSTAT5 (pY694) median fluorescence intensity in CD3 positive population, read-out: hWB IC50
Entries and their measured pIC50 follow.
// field semantics: pIC50 = negative decimal log of concentration (mol/L)

molecule	pIC50
[2H]C([2H])([2H])NC(=O)c1nnc(Nc2cn(C)nn2)cc1Nc1cccc(-c2ncc(F)cn2)c1OC [Example 91]	6.78
[2H]C([2H])([2H])NC(=O)c1nnc(NC(=O)C2CC2)cc1Nc1cccc(-c2cnc(C(=O)NC)cn2)c1OC [Example 39]	6.66
[2H]C([2H])([2H])NC(=O)c1nnc(Nc2cc3ccccc3nn2)cc1Nc1cccc(-c2ncc(F)cn2)c1OC [Example 100]	6.78

Exam item: Given the molecule [2H]C([2H])([2H])NC(=O)c1nnc(Nc2cc(C(C)(C)O)n(C)n2)cc1Nc1cc(F)cc(-c2ncccn2)c1OC [Example 84] , what is its reported pIC50?
Marked response: 7.72

Exam item: Given the molecule [2H]C([2H])([2H])NC(=O)c1cnc(Nc2cc(C#N)n(C)n2)cc1Nc1cccc(-c2ncccn2)c1OC [Example 61] , what is its reported pIC50?
Marked response: 6.65

Exam item: Given the molecule [2H]C([2H])([2H])NC(=O)c1nnc(Nc2cnn(C)n2)cc1Nc1cccc(-c2ncc(F)cn2)c1OC [Example 90] , what is its reported pIC50?
Marked response: 6.77

Exam item: Given the molecule [2H]C([2H])([2H])NC(=O)c1nnc(Nc2cc(C(C)(C)O)ccn2)cc1Nc1cc(F)cc(-c2ncccn2)c1OC [Example 105] , what is its reported pIC50?
Marked response: 6.76

Exam item: Given the molecule [2H]C([2H])([2H])NC(=O)c1nnc(NC(=O)C2CC2)cc1Nc1cccc(-c2cnc(C(=O)N3CC[C@@H](F)C3)cn2)c1OC [Example 37] , what is its reported pIC50?
Marked response: 7.01

Exam item: Given the molecule [2H]C([2H])([2H])NC(=O)c1nnc(Nc2ccc(OC)nn2)cc1Nc1cccc(-c2ncc(F)cn2)c1OC [Example 97] , what is its reported pIC50?
Marked response: 7.10

Exam item: Given the molecule [2H]C([2H])([2H])NC(=O)c1nnc(NC(=O)C2CC2)cc1Nc1cc(F)cc(-c2ccc(C(=O)N(C)C)cn2)c1OC [Example 44] , what is its reported pIC50?
Marked response: 6.96
